- system: P450 19A1 (aromatase) (Homo sapiens, UniProt P11511)
- Sequence (P16435 2-677): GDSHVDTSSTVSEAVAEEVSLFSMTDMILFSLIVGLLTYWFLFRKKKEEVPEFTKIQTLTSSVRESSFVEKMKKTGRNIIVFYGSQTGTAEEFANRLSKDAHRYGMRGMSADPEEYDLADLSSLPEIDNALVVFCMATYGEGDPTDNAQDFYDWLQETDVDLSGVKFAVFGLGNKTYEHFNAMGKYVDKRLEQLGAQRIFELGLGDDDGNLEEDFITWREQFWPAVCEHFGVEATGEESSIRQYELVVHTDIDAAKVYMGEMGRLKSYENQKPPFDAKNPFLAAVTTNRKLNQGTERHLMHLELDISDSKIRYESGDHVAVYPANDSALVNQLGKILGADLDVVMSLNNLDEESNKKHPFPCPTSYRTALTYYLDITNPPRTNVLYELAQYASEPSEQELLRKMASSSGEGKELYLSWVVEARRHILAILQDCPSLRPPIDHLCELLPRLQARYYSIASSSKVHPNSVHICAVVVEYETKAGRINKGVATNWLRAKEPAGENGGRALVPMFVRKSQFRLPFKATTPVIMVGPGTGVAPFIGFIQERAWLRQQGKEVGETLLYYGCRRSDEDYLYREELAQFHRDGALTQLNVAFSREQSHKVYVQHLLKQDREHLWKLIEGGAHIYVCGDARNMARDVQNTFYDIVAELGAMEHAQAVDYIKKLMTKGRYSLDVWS
- Sequence (P11511 whole entry): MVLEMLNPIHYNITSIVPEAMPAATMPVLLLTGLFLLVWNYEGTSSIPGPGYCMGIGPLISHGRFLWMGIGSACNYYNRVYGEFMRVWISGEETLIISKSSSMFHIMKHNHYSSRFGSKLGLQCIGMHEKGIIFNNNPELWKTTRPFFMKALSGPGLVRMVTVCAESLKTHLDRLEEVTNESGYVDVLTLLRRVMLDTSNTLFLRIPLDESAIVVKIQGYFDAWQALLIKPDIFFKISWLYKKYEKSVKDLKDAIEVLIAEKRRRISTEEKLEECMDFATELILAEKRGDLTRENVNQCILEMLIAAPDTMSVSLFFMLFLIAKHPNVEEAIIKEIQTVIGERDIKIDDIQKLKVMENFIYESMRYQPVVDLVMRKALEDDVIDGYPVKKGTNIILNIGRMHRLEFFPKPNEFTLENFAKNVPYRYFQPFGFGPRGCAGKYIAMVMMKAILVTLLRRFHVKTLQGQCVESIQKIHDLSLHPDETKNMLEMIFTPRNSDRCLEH
property measured: IC50 (µM)
Note: unit µM is implicit; provide only the numeric part.

// fetch P450 19A1 (aromatase) (Homo sapiens, UniProt P11511) IC50 for "C[C@]12CCC(=O)C(O)=C1CC[C@@H]1[C@@H]2CC[C@]2(C)C(=O)CC[C@@H]12"
0.43
